# maps each entry to its cytotoxicity at 10 µM
Test: Toxicity liver stage against HepG2, at 10uM
Assay type: cell-based
Set-up: test concentration 10 uM, cell line HepG2-A16-CD81EGFP
Conditions: human, HepG2-A16-CD81EGFP cells; read-out: INHIBITION
Report as a plain number; the unit % is understood.

>  <compound>
Cc1nc2ccc(C(=O)N3CCn4c(C)nnc4C3)cc2nc1C

>  <unit_abbrev>
%

>  <cytotoxicity at 10 µM>
-6.2

$$$$
>  <compound>
CC(NC(=O)Cn1ccnc1)c1ccc(OCC2CC2)c(F)c1 (stereo unspecified)

>  <unit_abbrev>
%

>  <cytotoxicity at 10 µM>
0.99

$$$$
>  <compound>
COc1cc(N2CCC3(CCCN(C(=O)c4cnccn4)C3)C2)ncn1 (stereo unspecified)

>  <unit_abbrev>
%

>  <cytotoxicity at 10 µM>
-2.48

$$$$
>  <compound>
Cc1cccc(C(=O)N2CCC3(CCN(c4cnn(C)c4)C3=O)C2)n1 (stereo unspecified)

>  <unit_abbrev>
%

>  <cytotoxicity at 10 µM>
5.05

$$$$

Report cytotoxicity at 10 µM for CNS(=O)(=O)c1csc(C(=O)N(C)Cc2ccccc2C)c1
6.78

Please indicate cytotoxicity at 10 µM recorded for O=C(Nc1cc(C(F)(F)F)c[nH]c1=O)N1CCOCC1
-3.03
